Source: PubChem BioAssay AID463111

Assay: enhancers of RGS4 function in calcium signaling – cell-based, HEK293 M3R inducible RGS4, calcium flux, primary screen (AID 463111)
Conditions: HEK293 M3R/inducible RGS4, carbachol calcium flux Fluo4, at 10 µM
Screen size: about 310,000 compounds; about 2,800 (0.9%) were called active.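 How the source made its calls: active means B-score of the integrated calcium signal more than 4 SD below the library mean, with starting fluorescence not abnormally high; inactive means the rest.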 For the sample, actives were picked, then their nearest neighbours and some compounds at random.
Possible outcomes: active, inactive

Cc1ccc(NC(=O)COc2ccc(/C=C3/NC(=O)NC3=O)cc2)cc1    inactive
COc1ccccc1-c1cnn2c(N3CCOCC3)cc(C)nc12    inactive
CC(=O)c1ccc(S(=O)(=O)Nc2ccc(C(=O)NCC(c3ccccc3)N(C)C)cc2)cc1 (stereo not drawn)    inactive
Cn1nnnc1SCC(=O)N1CCN(C(c2ccccc2)c2ccccc2)CC1    inactive
CCCCCCC(O)(CCN1CCCCC1)c1ccccc1 (stereo not drawn)    inactive
COc1ccccc1C(CNC(=O)c1cccc(NS(=O)(=O)c2ccc(Br)cc2)c1)N(C)C (stereo not drawn)    active
COc1ccccc1NC(=O)CCCc1c[nH]c2ccccc12    inactive
Cc1cccc(-c2nc(Nc3ccc(O)cc3)c3ccccc3n2)c1    active
CC(C)c1ccc(/C=C2\NC(=O)NC2=O)cc1    active
CCCCOc1ccc(C(C)(O)CCN2CCOCC2)cc1 (stereo not drawn)    inactive
NC(=O)Nc1ccccc1C(=O)NCCc1ccccc1    inactive
c1ccc(-c2ccccc2OCCN2CCCCC2)cc1    inactive
O=C(c1ccc(-n2cnnn2)cc1)N1CCN(C(c2ccccc2)c2ccccc2)CC1    active
CSc1ccc(/C=C2\NC(=O)NC2=O)cc1    inactive
CC(C)(c1ccccc1)c1ccc(OCCN2CCCC2)cc1    inactive
Cc1onc(C(=O)NN)c1C(=O)N1CCN(C(c2ccccc2)c2ccccc2)CC1    inactive
CCCCCCCC(=O)NC(Nc1ccccc1OC)C(Cl)(Cl)Cl (stereo not drawn)    active
CCS(=O)(=O)C1=NSC2=NC(=O)/C(=C\c3ccc(OS(=O)(=O)c4ccccc4)cc3)C(=N)N21    inactive
COc1ccc(Nc2nc(-c3cccnc3)nc3ccccc23)cn1    inactive
CCCCCC(O)(CCN1CCCCC1)c1ccccc1 (stereo not drawn)    active
COC(=O)c1ccc(C2C3=C(Nc4nnnn42)c2ccccc2OC3)cc1 (stereo not drawn)    inactive
CC(=O)Nc1cccc(Nc2nc(-c3cccs3)nc3ccccc23)c1    inactive
CN(C)C(CNC(=O)c1cccc(S(=O)(=O)Nc2ccc(Br)cc2)c1)c1ccco1 (stereo not drawn)    inactive
